Recorded pKd values (Human Cbl-b (residues 40-426) (Homo sapiens (Human), UniProt Q13191)) are given below.
Quick note: pKd values are minus log10 of concentrations in mol/L.

query: Any idea what its pKd is? The compound is CO[C@H]1C[C@](c2cccc(N3Cc4c(cc(CNC5CC6(C5)CC6F)cc4C(F)(F)F)C3=O)c2)(c2nncn2C)C1 (stereo partly shown)
result: 8.24

query: Follow-up item: COc1cc(N2Cc3c(cc(CNC4(C)CCC4)cc3C(F)(F)F)C2=O)cc([C@]2(c3nncn3C)C[C@H](OC)C2)c1
result: 8.52

query: Next entry: Cn1cnnc1[C@H](c1cccc(N2Cc3c(cc(CNC4(C)CCC4)cc3C(F)(F)F)C2=O)c1)[C@H]1C[C@H](C)C1 (single isomer, unassigned)
result: 7.34

query: Now give it for Cn1cnnc1[C@H](c1cccc(N2Cc3c(cc(CNC4(C)CCC4)cc3C(F)(F)F)C2=O)c1)C1CCCC1 too.
result: 9.19

query: Here is the next compound: CO[C@H]1C[C@](c2cccc(N3Cc4c(cc(CNCC(C)C)cc4C(F)(F)F)C3=O)c2)(c2nncn2C)C1
result: 8.77

query: Now give it for Cn1cnnc1[C@@H](c1cccc(N2Cc3c(cc(CNC4(C)CCC4)cc3C(F)(F)F)C2=O)c1)C1CC(OCC(F)F)C1 (stereo partly shown) too.
result: 6.23

query: Also check Cn1cnnc1[C@]1(c2cccc(N3Cc4c(cc(CNC5(C)CCC5)cc4C(F)F)C3=O)c2)C[C@H](F)C1
result: 8.66

---

Target or test system: Cbl-b (Homo sapiens (Human))
Sequence (Q13191 40-426): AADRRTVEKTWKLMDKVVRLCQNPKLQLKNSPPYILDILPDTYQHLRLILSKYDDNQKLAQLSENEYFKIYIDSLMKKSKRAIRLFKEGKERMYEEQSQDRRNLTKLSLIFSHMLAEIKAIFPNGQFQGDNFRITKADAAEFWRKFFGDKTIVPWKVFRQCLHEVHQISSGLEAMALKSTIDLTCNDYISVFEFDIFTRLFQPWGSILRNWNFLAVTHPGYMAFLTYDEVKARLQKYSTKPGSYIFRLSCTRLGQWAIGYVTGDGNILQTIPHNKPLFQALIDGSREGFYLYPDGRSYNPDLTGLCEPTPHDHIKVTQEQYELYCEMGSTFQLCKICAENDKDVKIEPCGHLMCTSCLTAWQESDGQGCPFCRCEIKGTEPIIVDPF
Procedure text: Cbl-b LCK Ub TR-FRET assay (Cbl-b Lck HTRF)
Assay type: biochemical
Details: Cbl-b LCK Ub TR-FRET
Measured property: pIC50
Field pIC50 (float): negative decimal logarithm of the concentration in molar.

query: What does the record list as pIC50 for CO[C@H]1C[C@](c2cccc(N3Cc4c(cc(CNC5(C)CCC5)cc4C(F)F)C3=O)c2)(c2nncn2C)C1 ?
result: 7.92

query: Next molecule: Cn1cnnc1C1(c2cccc(N3Cc4c(cc([C@@H](O)CO)cc4C(F)(F)F)C3=O)c2)CCC1 (single isomer, unassigned)
result: 6.52

query: Can you check Cn1cnnc1C1(c2cc(NCCC#N)nc(N3Cc4c(cc(CNC5(C)CCC5)cc4C(F)(F)F)C3=O)c2)CC2(COC2)C1 next?
result: 7.96

query: What about this molecule? Cn1cnnc1C(F)(c1cccc(N2Cc3c(cc(CNC4(C)CCC4)cc3C(F)(F)F)C2=O)c1)C1(F)COC1 (stereo in doubt)
result: 6.12

query: Also CC[C@@](O)(c1cccc(N2Cc3c(cc(CNC4(C)CCC4)cc3C(F)(F)F)C2=O)c1)c1nncn1C (single isomer, unassigned) , if possible.
result: 8.00

query: Entry to check: CO[C@H]1C[C@](c2cccc(N3Cc4c(cc([C@H](C)NC5(C)CCC5)cc4C(F)(F)F)C3=O)c2)(c2nncn2C)C1 (single isomer, unassigned)
result: 7.64

query: How about this molecule: CCO[C@H]1C[C@@](c2cccc(N3Cc4c(cc(CNC5(C)CCC5)cc4C(F)(F)F)C3=O)c2)(c2nncn2C)C1
result: 7.48

query: Thanks! And Cn1cnnc1[C@@H](CC1(C)COC1)c1cccc(N2Cc3c(cc(CNC4(C)CCC4)cc3C(F)(F)F)C2=O)c1 ?
result: 6.12

query: Please give the result for CC(C)[C@H]1CN(C)CCN1Cc1cc2c(c(C(F)F)c1)CN(c1cccc(C3(c4nncn4C)CC4(COC4)C3)c1)C2=O.O=CO.O=CO [Compound 198, formate] too.
result: 7.34

query: Now try CC[C@H](c1cccc(N2Cc3c(Cl)cc(CNC4(C)CCC4)cc3C2=O)c1)c1nncn1C (single isomer, unassigned) .
result: 6.85

query: Subsequent entry: Cn1cnnc1C(c1cccc(N2Cc3c(cc(CNC4(C)CCC4)cc3C(F)(F)F)C2=O)c1)[C@H]1C[C@H](Cl)C1 (single isomer, unassigned) [Compound 356]
result: 7.54

query: Check Cl.Cn1cnnc1[C@]1(c2cccc(N3Cc4c(cc(CNC5(C)CCC5)cc4C(F)(F)F)C3=O)c2)C[C@@H](Cl)C1 [Compound 137, hydrochloride] too.
result: 8.21

query: Further, for C[C@H](NC1(C)CCC1)c1cc2c(c(C(F)(F)F)c1)CN(c1cccc(C(c3nncn3C)C3COC3)c1)C2=O (stereo partly drawn) ?
result: 8.22

query: Can you check Cn1cnnc1[C@](O)(c1cccc(N2Cc3c(cc(CNC4(C)CCC4)cc3C(F)(F)F)C2=O)c1)C1COC1 (single isomer, unassigned) next?
result: 5.35

query: And then CO[C@H]1C[C@@H]([C@@H](c2cccc(N3Cc4c(cc(CN5CCN(C)C[C@@H]5C(C)C)cc4C(F)(F)F)C3=O)c2)c2nncn2C)C1 (single isomer, unassigned) [Compound 14] , what is it?
result: 6.20

query: Next record, please: Cn1cnnc1[C@@H](c1cccc(N2Cc3c(cc(CNC4(C)CCC4)cc3C(F)(F)F)C2=O)c1)C1CC(OC(F)(F)F)C1 (single isomer, unassigned)
result: 8.24

query: Next molecule: Cn1cnnc1[C@@](C)(O)c1cccc(N2Cc3c(cc(CNC4(C)CCC4)cc3C(F)(F)F)C2=O)c1
result: 6.85

query: Please give the result for Cn1cnnc1[C@@H](c1cccc(N2Cc3c(Cl)cc(CNC4(C)CCC4)cc3C2=O)c1)C1COC1 too.
result: 7.96

query: Another molecule to check: Cn1cnnc1[C@@H](c1cccc(N2Cc3c(cc(CNC4(C)CCC4)cc3C(F)(F)F)C2=O)c1)[C@H]1C[C@H](OC(F)(F)F)C1 (single isomer, unassigned)
result: 7.12

query: And then Cn1cnnc1[C@]1(c2cccc(N3Cc4c(cc(CNC5(C)CCC5)cc4C(F)(F)F)C3=O)c2)C[C@H]([S@+](C)[O-])C1 (single isomer, unassigned) , what is it?
result: 5.04

query: Follow-up entry: Cn1cnnc1[C@@](F)(c1ccccc1)c1cccc(N2Cc3c(Cl)cc(CNC4(C)CCC4)cc3C2=O)c1 (single isomer, unassigned)
result: 5.00

query: Check Cn1cnnc1[C@]1(c2cccc(N3Cc4c(cc(CNC5(C)CCC5)cc4C(F)F)C3=O)c2)C[C@@H](F)C1 too.
result: 7.82

query: Check Cn1cnnc1[C@]1(c2cc(NC3CCCC3)cc(N3Cc4c(cc(CNC5(C)CCC5)cc4C(F)(F)F)C3=O)c2)C[C@@H](C)C1 too.
result: 7.74
